assay: Selectivity index, ratio of ED50 for human HT1080 cells to ED50 for chloroquine-resistant Plasmodium falciparum W2; type: toxicity, cell-based, HT-1080; conditions: read-out: Ratio ED50
Under this convention, YES denotes selectivity ratio strictly below 50 and NO denotes selectivity ratio at or above 50.

compound	class-assignment
COc1ccc2cc1Oc1ccc(cc1)C[C@H]1c3cc(c(OC)cc3CCN1C)Oc1c(OC)c(OC)cc3c1[C@@H](C2)N(C)CC3	NO
C=C[C@H]1CN2CC[C@H]1C[C@H]2[C@H](O)c1ccnc2ccc(OC)cc12	NO

Please state whether selectivity ratio is below 50 for COc1ccc2cc1Oc1ccc(cc1)C[C@H]1c3cc(c(OC)cc3CCN1C)Oc1c(O)c(OC)cc3c1[C@@H](C2)N(C)CC3
YES

Please state whether selectivity ratio is below 50 for COc1ccc2cc1Oc1ccc(cc1)C[C@H]1c3c(cc(OC)c(O)c3Oc3cc4c(cc3OC)CCN[C@@H]4C2)CCN1C
YES

Please state whether selectivity ratio is below 50 for COc1ccc2cc1Oc1ccc(cc1)C[C@H]1c3c(cc4c(c3Oc3cc5c(cc3OC)CCN(C)[C@@H]5C2)OCO4)CCN1C
YES

Please state whether selectivity ratio is below 50 for COc1ccc2cc1Oc1ccc(cc1)C[C@H]1c3cc(c(OC)cc3CCN1C)Oc1c(OC)c(OC)cc3c1[C@@H](C2)NCC3
NO

Please state whether selectivity ratio is below 50 for COc1ccc2cc1Oc1ccc(cc1)C[C@H]1c3c(cc(OC)c(OC)c3Oc3cc4c(cc3OC)CCN(C)[C@@H]4C2)CCN1C
YES

Please state whether selectivity ratio is below 50 for OC(c1cc(C(F)(F)F)nc2c(C(F)(F)F)cccc12)C1CCCCN1 (centres undefined)
NO

Please state whether selectivity ratio is below 50 for COc1ccc2cc1Oc1ccc(cc1)C[C@H]1c3cc(c(OC)cc3CCN1C)Oc1c(O)c(OC)cc3c1[C@@H](C2)NCC3
YES

====

experiment: Cytotoxicity against human A431 cells after 3 days by sulforhodamine B assay; format: cell-based, A-431; conditions: read-out: ED50
measured-metric: CC50 at 72 h (µg/mL)
All answers are understood in µg/mL, so give the number only.

Some compounds with known CC50 at 72 h results, for comparison:
COc1ccc2cc1Oc1ccc(cc1)C[C@H]1c3c(cc(OC)c(OC)c3Oc3cc4c(cc3OC)CCN[C@@H]4C2)CCN1C 6.1
COc1ccc2cc1Oc1ccc(cc1)C[C@H]1c3cc(c(OC)cc3CCN1C)Oc1c(O)c(OC)cc3c1[C@@H](C2)NCC3 4.2

For this compound ( COc1ccc2cc1Oc1ccc(cc1)C[C@H]1c3cc(c(OC)cc3CCN1C)Oc1c(OC)c(OC)cc3c1[C@@H](C2)NCC3 ), measured CC50 at 72 h is 4.7

For this compound ( COc1ccc2cc1Oc1ccc(cc1)C[C@H]1c3c(cc4c(c3Oc3cc5c(cc3OC)CCN[C@@H]5C2)OCO4)CCN1C ), measured CC50 at 72 h is 1.8

====

test: Selectivity index, ratio of ED50 for human BCA1 cells to ED50 for chloroquine-resistant Plasmodium falciparum W2; format: toxicity, cell-based; settings: read-out: Ratio ED50
Label yes when selectivity ratio >= 20; otherwise no.

COc1ccc2cc1Oc1ccc(cc1)C[C@H]1c3cc(c(OC)cc3CCN1C)Oc1c(O)c(OC)cc3c1[C@@H](C2)NCC3 yes

Can COc1ccc2cc1Oc1ccc(cc1)C[C@H]1c3c(cc(OC)c(OC)c3Oc3cc4c(cc3OC)CCN[C@@H]4C2)CCN1C be said to have selectivity ratio at or above 20?
yes

Can COc1ccc2cc1Oc1ccc(cc1)C[C@H]1c3c(cc(OC)c4c3Oc3cc5c(cc3O4)CCN=C5C2)CCN1C be said to have selectivity ratio at or above 20?
no

Can COc1ccc2cc1Oc1ccc(cc1)C[C@H]1c3c(cc(OC)c(OC)c3Oc3cc4c(cc3OC)CCN(C)[C@@H]4C2)CCN1C be said to have selectivity ratio at or above 20?
yes

Can COc1ccc2cc1Oc1ccc(cc1)C[C@H]1c3c(cc(OC)c4c3Oc3cc5c(cc3O4)CCN(C)[C@@H]5C2)CCN1C be said to have selectivity ratio at or above 20?
no

Can COc1ccc2cc1Oc1ccc(cc1)C[C@H]1c3cc(c(OC)cc3CCN1C)Oc1c(O)c(OC)cc3c1[C@@H](C2)N(C)CC3 be said to have selectivity ratio at or above 20?
yes

Can COc1ccc2cc1Oc1ccc(cc1)C[C@H]1c3c(cc(OC)c(O)c3Oc3cc4c(cc3OC)CCN(C)[C@@H]4C2)CCN1C be said to have selectivity ratio at or above 20?
no

====

assay: Selectivity index, ratio of ED50 for human LNCaP cells to ED50 for chloroquine-sensitive Plasmodium falciparum D6; format: toxicity, cell-based; conditions: read-out: Ratio ED50
measured-metric: selectivity ratio
Give the value as a plain number.

For this molecule ( COc1ccc2cc1Oc1ccc(cc1)C[C@H]1c3cc(c(OC)cc3CCN1C)Oc1c(O)c(OC)cc3c1[C@@H](C2)NCC3 ), measured selectivity ratio is 97

For this molecule ( COc1ccc2cc1Oc1ccc(cc1)C[C@H]1c3c(cc(OC)c4c3Oc3cc5c(cc3O4)CCN=C5C2)CCN1C ), measured selectivity ratio is 7

For this molecule ( COc1ccc2cc1Oc1ccc(cc1)C[C@H]1c3cc(c(OC)cc3CCN1C)Oc1c(OC)c(OC)cc3c1[C@@H](C2)NCC3 ), measured selectivity ratio is 62

====

assay: Selectivity index, ratio of ED50 for human LUC1 cells to ED50 for chloroquine-sensitive Plasmodium falciparum D6; type: toxicity, cell-based; details: read-out: Ratio ED50
measured-metric: selectivity ratio
Give the value as a plain number.

Some molecules with known selectivity ratio results, for comparison:
molecule	selectivity ratio
COc1ccc2cc1Oc1ccc(cc1)C[C@H]1c3c(cc(OC)c(OC)c3Oc3cc4c(cc3OC)CCN(C)[C@@H]4C2)CCN1C [OBABERINE]	42
COc1ccc2cc1Oc1ccc(cc1)C[C@H]1c3c(cc(OC)c(O)c3Oc3cc4c(cc3OC)CCN[C@@H]4C2)CCN1C	143
COc1ccc2cc1Oc1ccc(cc1)C[C@H]1c3c(cc(OC)c4c3Oc3cc5c(cc3O4)CCN=C5C2)CCN1C	6
COc1ccc2cc1Oc1ccc(cc1)C[C@H]1c3cc(c(OC)cc3CCN1C)Oc1c(OC)c(OC)cc3c1[C@@H](C2)NCC3	148
COc1ccc2cc1Oc1ccc(cc1)C[C@H]1c3c(cc(OC)c(OC)c3Oc3cc4c(cc3OC)CCN[C@@H]4C2)CCN1C	192

--- query ---
For this molecule ( COc1ccc2cc1Oc1ccc(cc1)C[C@H]1c3cc(c(OC)cc3CCN1C)Oc1c(O)c(OC)cc3c1[C@@H](C2)N(C)CC3 ), measured selectivity ratio is 80

====

experiment: Cytotoxicity against human A431 cells after 3 days by sulforhodamine B assay; format: cell-based, A-431; settings: read-out: ED50
measured-metric: CC50 at 72 h (µg/mL)
All answers are understood in µg/mL, so give the number only.

molecule	unit-info	CC50 at 72 h
COc1ccc2cc1Oc1ccc(cc1)C[C@H]1c3c(cc(OC)c(OC)c3Oc3cc4c(cc3OC)CCN(C)[C@@H]4C2)CCN1C	µg/mL	8.7
COc1ccc2cc1Oc1ccc(cc1)C[C@H]1c3c(cc(O)c(OC)c3Oc3cc4c(cc3OC)CCN(C)[C@@H]4C2)CCN1C	µg/mL	8.9
COc1ccc2cc1Oc1ccc(cc1)C[C@H]1c3c(cc(OC)c4c3Oc3cc5c(cc3O4)CCN(C)[C@@H]5C2)CCN1C	µg/mL	2.6
OC(c1cc(C(F)(F)F)nc2c(C(F)(F)F)cccc12)C1CCCCN1 (configuration not stated)	µg/mL	3
COc1ccc2cc1Oc1ccc(cc1)C[C@H]1c3c(cc4c(c3Oc3cc5c(cc3OC)CCN(C)[C@@H]5C2)OCO4)CCN1C	µg/mL	2.1

--- query ---
For this molecule ( COc1ccc2cc1Oc1ccc(cc1)C[C@H]1c3c(cc(OC)c4c3Oc3cc5c(cc3O4)CCN=C5C2)CCN1C ), measured CC50 at 72 h is 6

====

experiment: Cytotoxicity against human LNCAP cells after 3 days by sulforhodamine B assay; format: cell-based; settings: read-out: ED50
# CC50 at 72 h listing for each entry below
All answers are understood in µg/mL, so give the number only.

Some compounds with known CC50 at 72 h results, for comparison:
compound	CC50 at 72 h, µg/mL
CCN(CC)CCCC(C)Nc1ccnc2cc(Cl)ccc12 (stereo unspecified)	14.3
COc1ccc2cc1Oc1ccc(cc1)C[C@H]1c3cc(c(OC)cc3CCN1C)Oc1c(OC)c(OC)cc3c1[C@@H](C2)NCC3	4.1
COc1ccc2cc1Oc1ccc(cc1)C[C@H]1c3c(cc(OC)c4c3Oc3cc5c(cc3O4)CCN(C)[C@@H]5C2)CCN1C	2.1
COc1ccc2cc1Oc1ccc(cc1)C[C@H]1c3c(cc(OC)c(OC)c3Oc3cc4c(cc3OC)CCN[C@@H]4C2)CCN1C	3.7

--- query ---
For this compound ( OC(c1cc(C(F)(F)F)nc2c(C(F)(F)F)cccc12)C1CCCCN1 (stereo unspecified) ), measured CC50 at 72 h is 2.3
